condition_summary: in ethanol, 293.15 K
assay_metric: solubility (mole fraction)
Give bare numbers.

Quick one: solubility (mole fraction) for `O=C(O)[C@H]1O[C@@H](Oc2cc3oc(-c4ccccc4)cc(=O)c3c(O)c2O)[C@H](O)[C@@H](O)[C@@H]1O` ?
0.000186

###

condition_summary: in ethanol, 278.15 K
assay_metric: solubility (mole fraction)
Answers are plain numbers.

I would be grateful if you could share the reported solubility (mole fraction) for `O=C(O)[C@H]1O[C@@H](Oc2cc3oc(-c4ccccc4)cc(=O)c3c(O)c2O)[C@H](O)[C@@H](O)[C@@H]1O` .
0.000171

###

condition_summary: in n-propanol, 313.15 K
assay_metric: solubility (mole fraction)
Numbers only.

Field request: solubility (mole fraction) | item: `O=C(O)[C@H]1O[C@@H](Oc2cc3oc(-c4ccccc4)cc(=O)c3c(O)c2O)[C@H](O)[C@@H](O)[C@@H]1O`
0.00451
